Biological target: T1, PCSK9 V domain (450-692 of SEQ ID NO: 3) (human, UniProt Q8NBP7 450-692)
T1 construct: also called v-domain PCSK9
T1 chain: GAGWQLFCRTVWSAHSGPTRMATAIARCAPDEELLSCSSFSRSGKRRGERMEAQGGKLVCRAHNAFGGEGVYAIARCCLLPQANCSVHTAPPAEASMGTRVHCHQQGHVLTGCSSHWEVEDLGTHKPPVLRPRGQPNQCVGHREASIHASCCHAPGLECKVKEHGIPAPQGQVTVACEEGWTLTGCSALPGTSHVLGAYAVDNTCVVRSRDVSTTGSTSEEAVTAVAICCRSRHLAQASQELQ
Experiment: domain binding ELISA (coated antibody captures the PCSK9 form; OD650)
quantity measured: binding result

26E10.1 (antibody, V domains shown, subclone) VH: QVQLVQSGAEVKKPGASVKVSCKASGYTLTSYGISWVRQAPGQGLEWMGWVSFYNGNTNYAQKLQGRGTMTTDPSTSTAYMELRSLRSDDTAVYYCARGYGMDVWGQGTTVTVSS VL: QSALTQPASVSGSPGQSITISCTGTSSDVGGYNSVSWYQQHPGKAPKLMIYEVSNRPSGVFNRFSGSKSGNTASLTISGLQAEDEADYYCNSYTSTSMVFGGGTKLTVL
no binding
25G4 (antibody, V domains shown) VH: EVQLLESGGGLVQPGGSLRLSCAASGFTFSSYAMNWVRQAPGKGLEWVSTISGSGGNTYYADSVKGRFTISRDNSKNTLYLQMNSLRAEDTAVYYCAKKFVLMVYAMLDYWGQGTLVTVSS VL: DIQMTQSPSSLSASVGDRVTITCRASQSISIYLNWYQQKPGKAPYLLIYAAASLQSGVPSRFSGSGSGTDFTLTISSLQPEDFATYYCQQSYSAPITFGQGTRLEIK
no binding
13H1 (antibody, V domains shown) VH: QVQLQQSGPGLVKPSQTLSLTCAISGDSVSSNSAAWNWIRQSPSRGLEWLGRTYYRSKWYKNYSVSVKSRITINPDTSKNQFSLQLNSVTPGDTAVYYCARGGPTAAFDYWGQGTLVTVSS VL: LSALTQPASVSGSPGQSITISCTGTSSDVGNYNLVSWYQQYSGKAPKLMIYEVSKRPSGVSNRFSGSKSGNTASLTISGLQAEDEADYYCCSYAGSSTLVFGGGTKLTVL
no binding
